# Lookup of reported pKd keyed by entry
molecular target: T1, Prostate specific antigen (PSA), purified from human seminal fluid (human, UniProt P07288 25-261); test: SPR, PSA captured by MAb H117, 0 µM Zn2+, average of 3 fits (3.4-8.5 µM analyte)
T1 construct: mature; Mostly captured on wells by MAb 5E4 (IFMA) or on the chip by MAb H117 (SPR); in solution in enzyme assays; also called free PSA; active PSA
The value called pKd is obtained by taking minus log10 of the concentration in mol/L.

# BINDER, pKd
records = [
    ("CVFTSDYAFC (other) [GST-A-1 (peptide A-1 expressed as glutathione S-transferase fusion protein)]", 5.11),
]

Query CVFAHNYDYLVC (other) [GST-B-2 (peptide B-2 expressed as glutathione S-transferase fusion protein)] yields pKd of 5.46
